Numbers sourced from the RNAGym collection of RNA variant scans (doi:10.1093/molbev/msab373).

B1: Azoarcus group I ribozyme (parent)
chain: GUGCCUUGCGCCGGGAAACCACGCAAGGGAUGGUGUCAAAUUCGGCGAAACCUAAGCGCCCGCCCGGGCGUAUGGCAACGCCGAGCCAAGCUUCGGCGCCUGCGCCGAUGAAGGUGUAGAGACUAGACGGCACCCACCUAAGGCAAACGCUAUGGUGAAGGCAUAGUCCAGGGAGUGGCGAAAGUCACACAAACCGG

# Variants of: B1
# test_details: reverse-splicing fitness (ratio to wild type); higher = more active; in vitro selection; Mg2+ level not given
just bin them by reverse-splicing fitness: LOW = under 0.008, MEDIUM = from 0.008 up to 0.02, HIGH = 0.02 and over

Req: Consider C82U A120C A145C C150U C169U U176G . To which reverse-splicing fitness class does it belong?
Resp: LOW

Req: What about this variant? C82U A111U A120G C169A U176G
Resp: LOW

Req: What about this variant? C82A A120G A145C C169G
Resp: MEDIUM

Req: What about this variant? A111U A120G A145U C150G U176A
Resp: MEDIUM

Req: What about this variant? C82G A111C A120G A145G C150G C169A U176G
Resp: MEDIUM

Req: What about this variant? C82A A111G C150A C169G
Resp: MEDIUM

Req: What about this variant? A120G A145U U176A
Resp: HIGH

Req: What about this variant? C82A A120G A145C C150G C169A
Resp: MEDIUM

Req: What about this variant? C82G A111U A145G C169G
Resp: MEDIUM

Req: What about this variant? C82A A111U A120U A145C C169A
Resp: LOW

Req: What about this variant? C82G A111G A120G A145U C150A U176G
Resp: LOW

Req: What about this variant? C82A A111C A120U A145C C169A U176C
Resp: LOW

Req: What about this variant? C82A A120G C169U U176G
Resp: LOW

Req: What about this variant? C82G A111U A120U C150U C169U U176G
Resp: LOW

Req: What about this variant? C82A A111G A120C A145G C150A
Resp: MEDIUM

Req: What about this variant? C82U A111G A120G A145C C150U U176C
Resp: MEDIUM

Req: What about this variant? A111G A120U A145U C150G C169A U176G
Resp: LOW

Req: What about this variant? A111G A120U A145G U176C
Resp: HIGH

Req: What about this variant? C82A A120C A145C C150G C169A U176G
Resp: LOW

Req: What about this variant? C82A A111C A120C A145G C169U U176A
Resp: MEDIUM

Req: What about this variant? C82U A111C A120G A145G
Resp: MEDIUM

Req: What about this variant? A111G A145G U176A
Resp: HIGH

Req: What about this variant? A111G A120C A145U C169U U176G
Resp: LOW

Req: What about this variant? C82U A111U A120C C150G U176A
Resp: LOW

Req: What about this variant? C82A A120U A145U C150G C169U U176C
Resp: LOW

Req: What about this variant? A111C A120U U176A
Resp: HIGH

Req: What about this variant? A111G A145C C150U C169U U176C
Resp: HIGH

Req: What about this variant? C82G A111G A145G C150U U176C
Resp: HIGH

Req: What about this variant? C82A A145U U176C
Resp: HIGH

Req: What about this variant? C82G A111G A120U A145C C150G C169G U176C
Resp: LOW

Req: What about this variant? A111C A145G U176C
Resp: HIGH

Req: What about this variant? C82A A111U A120U A145C C169U U176C
Resp: LOW

Req: What about this variant? C82G A111C A120G C150A U176C
Resp: MEDIUM

Req: What about this variant? C82A A111C A145C C150A C169G U176C
Resp: HIGH

Req: What about this variant? A111U A145G C150U C169G U176A
Resp: MEDIUM

Req: What about this variant? C82U A111U A120G C169A U176C
Resp: HIGH

Req: What about this variant? A111U A120C A145C C150G C169G U176C
Resp: LOW

Req: What about this variant? C82G A111C A120C A145C C150U C169G U176A
Resp: HIGH

Req: What about this variant? C82A A111U A120C A145C C169U U176A
Resp: MEDIUM

Req: What about this variant? C82U A111C A120G C150A U176C
Resp: MEDIUM

Req: What about this variant? C82G A111C A145U C169A U176C
Resp: MEDIUM

Req: What about this variant? A111C A120C A145C C150G
Resp: HIGH

Req: What about this variant? C82U A111C A145C C150G C169A U176C
Resp: LOW

Req: What about this variant? C82A A120U A145G C150A C169U
Resp: LOW

Req: What about this variant? A111G A145C C150U
Resp: HIGH

Req: What about this variant? C82A A111C A145C C150A C169U U176G
Resp: MEDIUM

Req: What about this variant? C82U A111G A120G C150A C169U U176C
Resp: MEDIUM

Req: What about this variant? C82G A111C A120U A145U C150U C169U U176G
Resp: LOW

Req: What about this variant? A111G A120C C169G
Resp: MEDIUM

Req: What about this variant? C82A A120U C169G U176C
Resp: LOW

Req: What about this variant? A111C A120G A145U C150A U176G
Resp: LOW

Req: What about this variant? A111G A120U A145U C150U
Resp: HIGH

Req: What about this variant? C82U A111C A120G A145C C150A C169U U176C
Resp: LOW

Req: What about this variant? C82U A111C A145G C150G
Resp: HIGH

Req: What about this variant? C82A A120U C150U C169G U176C
Resp: LOW

Req: What about this variant? A111U A120C A145U U176A
Resp: HIGH

Req: What about this variant? C82A A111G A120C A145C C150G C169U
Resp: MEDIUM

Req: What about this variant? A111U A120G A145G C150G C169U
Resp: HIGH

Req: What about this variant? A111G A120G A145G C150A C169A U176C
Resp: HIGH

Req: What about this variant? C82A A145U C169U U176C
Resp: MEDIUM

Req: What about this variant? C82U A111G A120G A145G C150G
Resp: LOW

Req: What about this variant? C82G A111G A120G A145G C150A
Resp: MEDIUM

Req: What about this variant? C150U C169U U176G
Resp: MEDIUM

Req: What about this variant? A111C A120G A145U U176G
Resp: LOW

Req: What about this variant? C82U A111C A120G A145G C150U C169A U176C
Resp: MEDIUM

Req: What about this variant? C82A A111C A120G A145G C150U C169A U176C
Resp: MEDIUM

Req: What about this variant? C82A A120U A145C C169G U176G
Resp: LOW

Req: What about this variant? C82U A111U A145G C150A C169G U176A
Resp: MEDIUM

Req: What about this variant? C82U C150U C169U U176G
Resp: LOW

Req: What about this variant? C82A A111C A120G A145U C150U C169G U176A
Resp: MEDIUM

Req: What about this variant? C82U A145G C169U
Resp: MEDIUM

Req: What about this variant? A111C A120U A145C U176G
Resp: HIGH

Req: What about this variant? A111G A120G C150U C169G U176A
Resp: HIGH

Req: What about this variant? C82A A111U A120C A145C C150G
Resp: MEDIUM

Req: What about this variant? C82G A111U A120U A145C C150U C169A U176A
Resp: LOW

Req: What about this variant? C82U A111U A120C A145G C150G C169U U176G
Resp: LOW

Req: What about this variant? C82A A111U A120G C150A C169G U176G
Resp: LOW

Req: What about this variant? C82G A111U A120G A145G C150G C169U U176C
Resp: MEDIUM

Req: What about this variant? C82A A111C A145G C169U U176G
Resp: LOW

Req: What about this variant? A120C A145G C150U C169G U176C
Resp: MEDIUM

Req: What about this variant? C82A A111U A120G A145C C150G C169U
Resp: LOW

Req: What about this variant? C82U A111C A120U A145U C169U U176G
Resp: LOW

Req: What about this variant? C82G A111G A120G A145G C169A U176G
Resp: LOW

Req: What about this variant? C82G A111G A120C A145C C150A C169U
Resp: MEDIUM

Req: What about this variant? C82A A111C A145U U176C
Resp: HIGH

Req: What about this variant? C82U A111U A120C A145U C150A U176A
Resp: MEDIUM

Req: What about this variant? A111G A120C C150A U176C
Resp: HIGH
